Below, each entry is listed with its recorded Anti-TNFα response Average.
test system: native mTNFα cytokine; test: ELISA test of serum antibodies against native mTNFα after immunization; type: in vivo; design: unit not given here; settings: ELISA on serum day D50; groups of 4 mice, 20 ug peptide coupled to KLH, boosters D20 and D40

{"columns": ["sequence_input", "test_target", "Anti-TNFα response Average"],
 "data": [
  ["IRQLHYRLRDEQQKSL [Group 1, murine IL1β peptide 3-18]", "native mTNFα cytokine", 0.13],
  ["IIDFTMESVSS [Group 4, murine IL1β peptide 142-152]", "native mTNFα cytokine", 0.12],
  ["KYLDFAESGQVY [Group 5, murine TNFα peptide 140-150]", "native mTNFα cytokine", 1.3],
  ["QYPKKKMEKRFVFNKIEV [Group 3, murine IL1β peptide 89-106]", "native mTNFα cytokine", 0.18],
  ["SFVQGEPSNDKIP [Group 2, murine IL1β peptide 45-57]", "native mTNFα cytokine", 0.15]
]}

Cited source for all entries: patent US20110182922A1
